# credit: patent US20050124638A1

Overview of reported CC50 at 48 h across a group of compounds:
assayExplanation: MTT toxicity assay
Assay type: cell-based

Requested read-out: CC50 at 48 h. Entry: CN(C)CC1CNc2nc3ccc(OCCCN(C)Cc4cccn4C)cc3n2C1 (stereo not drawn) [IBIS00554842]
50 µM

Requested read-out: CC50 at 48 h. Entry: CN(C)CCCn1c(N)nc2ccc3c(c21)CC(CN(C)Cc1ncc[nH]1)CO3 (stereo not drawn) [IBIS00560122]
> 100 µM

Requested read-out: CC50 at 48 h. Entry: CN(CCCOc1ccc2nc3n(c2c1)CC(CN1CCCCC1)CN3)Cc1ccccn1 (stereo not drawn) [IBIS00554811]
> 100 µM
